Biological target: T1, human RXFP1 (human, UniProt Q9HBX9 1-757)
T1 sequence (looked up): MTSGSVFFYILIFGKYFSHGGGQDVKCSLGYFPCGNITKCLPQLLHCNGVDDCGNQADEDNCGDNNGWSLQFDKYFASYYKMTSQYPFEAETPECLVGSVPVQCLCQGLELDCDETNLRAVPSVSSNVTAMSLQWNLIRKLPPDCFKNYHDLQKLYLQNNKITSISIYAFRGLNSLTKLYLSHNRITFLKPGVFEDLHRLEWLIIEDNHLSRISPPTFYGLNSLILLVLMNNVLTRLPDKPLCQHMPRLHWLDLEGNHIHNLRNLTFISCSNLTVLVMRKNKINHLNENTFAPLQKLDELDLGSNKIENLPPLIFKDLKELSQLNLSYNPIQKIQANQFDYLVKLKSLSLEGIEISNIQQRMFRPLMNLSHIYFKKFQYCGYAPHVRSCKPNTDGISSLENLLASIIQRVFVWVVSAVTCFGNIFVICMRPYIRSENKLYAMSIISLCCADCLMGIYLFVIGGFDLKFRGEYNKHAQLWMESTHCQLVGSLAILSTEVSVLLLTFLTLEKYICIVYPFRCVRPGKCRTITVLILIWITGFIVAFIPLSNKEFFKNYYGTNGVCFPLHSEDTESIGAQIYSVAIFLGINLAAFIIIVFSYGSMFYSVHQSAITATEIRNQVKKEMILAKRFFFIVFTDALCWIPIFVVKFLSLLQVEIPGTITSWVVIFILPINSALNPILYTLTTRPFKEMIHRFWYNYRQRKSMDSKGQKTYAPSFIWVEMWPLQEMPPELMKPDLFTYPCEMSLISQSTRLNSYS
Test: cell-based or functional assay
MEASURED_ENDPOINT: Potency (cAMP, transient hRXFP1 in HEK293) (nM)
The figure you give is taken to be in nM; do not add the unit.

Exam item: Report Potency (cAMP, transient hRXFP1 in HEK293) for SEQ ID NO: 135 (Fc fusion) DKTHTCPPCPAPEAAGGPSVFLFPPKPKDTLMISRTPEVTCVVVDVSHEDPEVKFNWYVDGVEVHNAKTKPREEQYNSTYRVVSVLTVLHQDWLNGKEYKCKVSNKALAAPIEKTISKAKGQPREPQVYTLPPSRDELTKNQVSLTCLVKGFYPSDIAVEWESNGQPENNYKTTPPVLDSDGSFFLYSKLTVDKSRWQQGNVFSCSVLHEALHSHYTQKSLSLSPGKGGSDSYQEEVIKLCGRELVRAQIAICGKSTGGEGSGGEGEGGGRQLYSALANKCCYVGCTKQSLAQFC please.
Marked response: 29.5
